Consider the following compounds and their measured pKi readings.
Target: 4-hydroxy-tetrahydrodipicolinate synthase (Escherichia coli K-12)
Experiment: Reversible inhibition of Escherichia coli dihydrodipicolinate synthase using ASA as substrate
pKi: −log10 of the molar value.

{"columns": ["COMPOUND", "RECORDED_VALUE"],
 "data": [
  ["N[C@@H](CC(=O)O)C(=O)O [ASPARTIC ACID]", "3.85 to 4.05"]
]}

Now consider a different compound.
Query string: Enter pKi (test system 4-hydroxy-tetrahydrodipicolinate synthase (Escherichia coli K-12)) for N[C@H]1CCOC1=O [HOMOSERINE LACTONE]
Result string: 1.66 to 1.92

====

Consider the following compounds and their measured pIC50 readings.
Target: 4-hydroxy-tetrahydrodipicolinate synthase (Escherichia coli K-12, UniProt P0A6L2)
Sequence (P0A6L2 whole entry): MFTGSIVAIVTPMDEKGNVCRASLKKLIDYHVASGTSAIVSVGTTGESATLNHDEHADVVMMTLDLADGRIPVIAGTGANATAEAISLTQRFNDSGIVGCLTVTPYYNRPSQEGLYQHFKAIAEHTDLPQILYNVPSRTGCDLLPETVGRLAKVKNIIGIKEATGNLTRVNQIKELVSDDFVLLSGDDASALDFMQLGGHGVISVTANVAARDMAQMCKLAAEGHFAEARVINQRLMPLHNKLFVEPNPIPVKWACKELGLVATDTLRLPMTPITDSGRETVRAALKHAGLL
Assay: Inhibition of Escherichia coli dihydrodipicolinate synthase
// pIC50 is dimensionless: -log10 of concentration (M)

{"columns": ["COMPOUND", "pIC50"],
 "data": [
  ["c1cc(-c2nnn[nH]2)nc(-c2nnn[nH]2)c1", 3.60],
  ["O=C(O)c1cccc(C(=O)O)[n+]1[O-]", 3.70],
  ["O=NN1CCCCC1C(=O)O (racemic)", 2.46],
  ["O=C(O)C1=CCCC(C(=O)O)C1 (centres undefined)", 1.82],
  ["O=NN1CCC[C@H]1C(=O)O", 2.12],
  ["N#Cc1cccc(C#N)n1", 3.52],
  ["NCCCC[C@H](N)C(=O)O", 3.74],
  ["COC(=O)c1cccc(C(=O)OC)n1", 3.15]
]}

Now consider a different compound.
Query string: Enter pIC50 (test system 4-hydroxy-tetrahydrodipicolinate synthase (Escherichia coli K-12, UniProt P0A6L2)) for COC(=N)c1cccc(C(=N)OC)n1
Result string: 3.70

====

Test: Inhibition of Campylobacter jejuni dihydrodipicolinate synthase
Conditions: read-out: IC50(app)
VALUE_TYPE: pIC50
// pIC50 is dimensionless: -log10 of concentration (M)

Query string: Determine its reported pIC50: NCCCC[C@H](N)C(=O)O [LYSINE]
Result string: 4.19

====

Target: 4-hydroxy-tetrahydrodipicolinate synthase (Mycobacterium tuberculosis, UniProt P9WP25)
Sequence (P9WP25 whole entry): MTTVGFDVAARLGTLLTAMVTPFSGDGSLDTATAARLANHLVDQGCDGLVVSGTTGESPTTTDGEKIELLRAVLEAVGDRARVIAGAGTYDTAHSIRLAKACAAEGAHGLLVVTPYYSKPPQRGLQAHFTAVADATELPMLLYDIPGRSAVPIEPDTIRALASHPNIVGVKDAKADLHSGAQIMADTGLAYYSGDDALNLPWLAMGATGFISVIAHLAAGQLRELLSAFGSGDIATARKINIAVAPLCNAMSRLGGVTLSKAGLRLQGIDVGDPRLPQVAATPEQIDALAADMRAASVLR
Assay: Reversible inhibition of recombinant N-terminal His-6 tagged Mycobacterium tuberculosis dihydrodipicolinate synthase using (S)-ASA as substrate preincubated for 5 mins followed by substrate addition measured over 10 mins by spectrophotometric analysis
VALUE_TYPE: pKi
// pKi is dimensionless: -log10 of concentration (M)

Query string: Determine its reported pKi: O=C(O)CCCCC(=O)C(=O)O
Result string: 4.48

====

Molecular target: 4-hydroxy-tetrahydrodipicolinate synthase (Escherichia coli K-12) (UniProt P0A6L2)
Test: Competitive inhibition of Escherichia coli dihydrodipicolinate synthase using pyruvate as substrate
VALUE_TYPE: Kis (mM)
Give just the number in mM; leave the unit off.

These solved cases illustrate the format of a correct answer.
{"columns": ["COMPOUND_STRUCTURE", "VALUE_TYPE", "RECORDED_VALUE"],
 "data": [
  ["O=C(O)C(=O)CF", "Kis", 0.22],
  ["CCCC(=O)C(=O)O", "Kis", 0.7],
  ["O=CC(=O)O", "Kis", 0.016]
]}

Now consider a different compound.
Query string: Determine its reported Kis: CCC(=O)C(=O)O
Result string: 0.83
